Target: T1, 4H2620-AA
T1 chain: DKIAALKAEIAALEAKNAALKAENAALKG
Assay: two-hybrid library CCmax;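 also: natural log of median RNA to DNA barcode read ratio; higher means stronger binding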
Details: mean of both orientations

{"binder": "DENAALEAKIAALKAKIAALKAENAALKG [4H1388-AA]", "interaction score": -0.0212}
{"binder": "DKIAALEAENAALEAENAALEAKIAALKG [4H2198-AA]", "interaction score": -0.832}
{"binder": "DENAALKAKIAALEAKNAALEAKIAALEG [4H1845-AA]", "interaction score": -1.86}
{"binder": "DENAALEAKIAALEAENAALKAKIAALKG [4H1310-AA]", "interaction score": -1.03}
{"binder": "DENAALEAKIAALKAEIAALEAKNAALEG [4H1351-AA]", "interaction score": -0.325}
{"binder": "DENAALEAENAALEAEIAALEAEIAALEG [4H1153-AA]", "interaction score": -1.41}
{"binder": "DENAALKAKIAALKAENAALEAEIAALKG [4H1874-AA]", "interaction score": 1.59}
{"binder": "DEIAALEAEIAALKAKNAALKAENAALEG [4H123-AA]", "interaction score": 0.675}
{"binder": "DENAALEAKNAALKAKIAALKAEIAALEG [4H1513-AA]", "interaction score": -1.68}
{"binder": "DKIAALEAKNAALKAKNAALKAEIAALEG [4H2553-AA]", "interaction score": -1.7}
{"binder": "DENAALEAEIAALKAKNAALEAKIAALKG [4H1142-AA]", "interaction score": -1.34}
